Source: patent US20250326840A1

- TEST_SYSTEM: T1, QP100 (cyno SIRPα (G7PGS8) ECD(E29-R368)-flag-his) (cynomolgus)
- T1 construct: the construct carries flag and his tags; also called cynoSIRPα-flag-his; Cynomolgus SIRPα (QP100)
- T1 chain: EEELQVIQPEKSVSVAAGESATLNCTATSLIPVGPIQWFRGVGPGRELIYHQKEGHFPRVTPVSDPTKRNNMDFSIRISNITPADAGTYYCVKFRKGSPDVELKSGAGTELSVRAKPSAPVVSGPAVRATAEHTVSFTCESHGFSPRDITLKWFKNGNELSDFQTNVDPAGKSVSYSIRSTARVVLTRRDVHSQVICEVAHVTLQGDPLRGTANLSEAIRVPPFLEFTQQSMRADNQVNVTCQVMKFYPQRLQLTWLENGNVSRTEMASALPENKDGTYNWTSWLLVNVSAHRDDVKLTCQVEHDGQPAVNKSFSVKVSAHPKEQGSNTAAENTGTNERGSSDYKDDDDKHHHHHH
- METHOD_NOTES: binding ELISA, antigen coated
MEASURED_QUANTITY: EC50 (ng/mL)
Quick note: give the figure in ng/mL, leave out the unit.

BINDER: QP256253 (antibody, human IgG4, V domains shown, also called humanized antibody QP256253; QP163164 humanized clone) VH: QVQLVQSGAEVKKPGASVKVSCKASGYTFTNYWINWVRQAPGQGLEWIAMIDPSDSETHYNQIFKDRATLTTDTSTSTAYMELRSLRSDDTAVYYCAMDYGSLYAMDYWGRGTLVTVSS VL: DIVLTQSPDSLAVSLGERATINCRASKSVSSSGYNYIFWYQQKPGQPPKLLIYLASNLDSGVPDRFSGSGSGTDFTLTISSLQAEDVAVYYCQHSRELPTFGQGTKLEIK
MEASURED_QUANTITY: EC50
RECORDED_RESULT: 1.72

Consider the additional binder presented here.
Exercise: Provide only the value of recorded EC50 for QP2561594 (antibody, human IgG4, V domains shown, Human IgG4 heavy constant region and kappa CL) VH: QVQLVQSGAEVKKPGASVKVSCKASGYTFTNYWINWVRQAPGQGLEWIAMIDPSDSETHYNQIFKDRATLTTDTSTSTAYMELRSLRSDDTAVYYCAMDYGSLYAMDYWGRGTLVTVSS VL: DIVLTQSPDSLAVSLGERATINCRASKSVSSSGYNYIFWYQQKPGQPPKLLIYLASNLDSGVPDRFSGSGSGTDFTLTISSLQAEDVAVYYCQHSRDLPTFGQGTKLEIK
Solution: 0.983
